assay: Cytotoxicity against human THP1 cells after 72 hrs by MTT assay; assay type: cell-based; details: THP-1 cells
Let's look at some compounds and their measured CC50 at 72 h.
readout kind: CC50 at 72 h (µg/mL)

CC(C)=CCc1c(-c2ccc(O)cc2O)oc2c([C@@H]3C=C(C)C[C@H](c4ccc(O)cc4O)[C@H]3C(=O)c3ccc(O)cc3O)c(O)cc(O)c2c1=O
33.8
CC(C)=CCc1c(O)ccc(C(=O)[C@@H]2[C@@H](c3ccc(O)cc3O)CC(C)=C[C@H]2c2c(O)cc(O)c3c(=O)c(CC=C(C)C)c(-c4ccc(O)cc4O)oc23)c1O
20.2

----------
Known IC50 of a selection of molecules
Target: Low molecular weight protein-tyrosine phosphatase A (Mycobacterium tuberculosis, UniProt P9WIA1)
Sequence (P9WIA1 whole entry): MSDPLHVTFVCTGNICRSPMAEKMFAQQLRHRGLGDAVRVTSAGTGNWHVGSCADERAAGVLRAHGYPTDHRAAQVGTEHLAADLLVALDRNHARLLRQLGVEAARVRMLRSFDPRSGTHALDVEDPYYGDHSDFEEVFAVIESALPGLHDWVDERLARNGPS
readout kind: IC50 (µM)

O=c1cc(-c2ccc(O)cc2O)oc2cc(O)cc(O)c12
12
CC(C)=CCc1c(O)ccc(C(=O)[C@@H]2[C@@H](c3ccc(O)cc3O)CC(C)=C[C@H]2c2c(O)cc(O)c3c(=O)c(CC=C(C)C)c(-c4ccc(O)cc4O)oc23)c1O
1.49
CC1=C[C@@H](c2c(O)ccc([C@@H]3CC(=O)c4c(O)cc(O)cc4O3)c2O)[C@H](C(=O)c2ccc(O)cc2O)[C@@H](c2ccc(O)cc2O)C1
14
CC(C)=CCc1c(O)cc2c(c1O)C(=O)C[C@@H](c1cc3c(cc1O)OC(C)(C)C=C3)O2
2.74
CC(C)=CCc1c(O)ccc(C(=O)[C@H]2[C@@H](c3c(O)cc(-c4cc5ccc(O)cc5o4)cc3O)C=C(C)C[C@@H]2c2ccc(O)cc2O)c1O
2.43
Oc1cc(O)cc(/C=C/c2ccc(O)cc2O)c1
67.2
CC(C)=CCc1c(-c2ccc(O)cc2O)oc2c3c(cc(O)c2c1=O)OC(C)(C)C=C3
4.65
CC(C)=CCc1c(-c2ccc(O)cc2O)oc2c([C@@H]3C=C(C)C[C@H](c4ccc(O)cc4O)[C@H]3C(=O)c3ccc(O)cc3O)c(O)cc(O)c2c1=O
5.89

----------
molecular target: Phosphotyrosine protein phosphatase (Mycobacterium tuberculosis, UniProt A0A045ISB3); assay: Binding affinity to Mycobacterium tuberculosis PtpB by ITC method
readout kind: Kd (nM)

CC(C)=CCc1c(-c2ccc(O)cc2O)oc2c([C@@H]3C=C(C)C[C@H](c4ccc(O)cc4O)[C@H]3C(=O)c3ccc(O)cc3O)c(O)cc(O)c2c1=O
2900

----------
A collection of molecules and their measured IC50
Target: Phosphotyrosine protein phosphatase (Mycobacterium tuberculosis, UniProt A0A045ISB3)
Sequence (A0A045ISB3 whole entry): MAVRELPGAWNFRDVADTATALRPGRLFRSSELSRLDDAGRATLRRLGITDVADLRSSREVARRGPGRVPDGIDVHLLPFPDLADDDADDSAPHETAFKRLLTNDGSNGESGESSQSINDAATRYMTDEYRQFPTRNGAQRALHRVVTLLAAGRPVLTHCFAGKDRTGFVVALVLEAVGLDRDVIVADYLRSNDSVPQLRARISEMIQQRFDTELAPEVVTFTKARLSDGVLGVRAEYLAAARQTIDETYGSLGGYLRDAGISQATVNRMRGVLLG
readout kind: IC50

CC(C)=CCc1c(O)ccc(C(=O)[C@H]2[C@@H](c3c(O)cc(/C=C/c4ccc(O)cc4O)cc3O)C=C(C)C[C@@H]2c2ccc(O)cc2O)c1O
1.9 µM
CC(C)=CCc1c(-c2ccc(O)cc2O)oc2c3c(cc(O)c2c1=O)OC(C)(C)C=C3 [MORUSIN]
5.26 µM
CC(C)=CCc1c(O)ccc(C(=O)[C@H]2[C@@H](c3c(O)cc(-c4cc5ccc(O)cc5o4)cc3O)C=C(C)C[C@@H]2c2ccc(O)cc2O)c1O [CHALCOMORACIN]
1.43 µM
CC1=C[C@@H](c2c(O)ccc([C@@H]3CC(=O)c4c(O)cc(O)cc4O3)c2O)[C@H](C(=O)c2ccc(O)cc2O)[C@@H](c2ccc(O)cc2O)C1
4.7 µM
CC(C)=CCc1c(-c2ccc(O)cc2O)oc2c([C@@H]3C=C(C)C[C@H](c4ccc(O)cc4O)[C@H]3C(=O)c3ccc(O)cc3O)c(O)cc(O)c2c1=O
0.83 µM
O=c1cc(-c2ccc(O)cc2O)oc2cc(O)cc(O)c12 [NORARTOCARPETIN]
1.2 µM
CC(C)=CCc1c(O)cc2c(c1O)C(=O)C[C@@H](c1cc3c(cc1O)OC(C)(C)C=C3)O2 [CUDRAFLAVANONE A]
5.07 µM
CC(C)=CCc1c(O)ccc(C(=O)[C@@H]2[C@@H](c3ccc(O)cc3O)CC(C)=C[C@H]2c2c(O)cc(O)c3c(=O)c(CC=C(C)C)c(-c4ccc(O)cc4O)oc23)c1O
0.36 µM

----------
Target: Phosphotyrosine protein phosphatase (Mycobacterium tuberculosis, UniProt A0A045ISB3)
Sequence (A0A045ISB3 whole entry): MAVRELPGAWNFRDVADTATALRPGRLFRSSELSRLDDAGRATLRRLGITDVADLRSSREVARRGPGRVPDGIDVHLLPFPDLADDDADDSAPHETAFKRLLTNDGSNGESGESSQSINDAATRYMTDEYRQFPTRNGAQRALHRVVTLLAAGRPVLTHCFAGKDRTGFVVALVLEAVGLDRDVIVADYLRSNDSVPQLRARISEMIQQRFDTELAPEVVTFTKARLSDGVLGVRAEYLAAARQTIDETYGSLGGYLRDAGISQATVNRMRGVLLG
Assay: Inhibition of Mycobacterium tuberculosis PtpB using p-nitrophenyl phosphate as substrate preincubated for 10 mins followed by substrate addition measured every minute for 10 mins by UV-VIS spectrophotometric analysis
pKi: −log10 of the molar value.
readout kind: pKi

CC(C)=CCc1c(O)ccc(C(=O)[C@H]2[C@@H](c3c(O)cc(/C=C/c4ccc(O)cc4O)cc3O)C=C(C)C[C@@H]2c2ccc(O)cc2O)c1O
5.80

----------
Target: Tyrosine-protein phosphatase non-receptor type 1 (Homo sapiens)
Sequence (P18031 whole entry): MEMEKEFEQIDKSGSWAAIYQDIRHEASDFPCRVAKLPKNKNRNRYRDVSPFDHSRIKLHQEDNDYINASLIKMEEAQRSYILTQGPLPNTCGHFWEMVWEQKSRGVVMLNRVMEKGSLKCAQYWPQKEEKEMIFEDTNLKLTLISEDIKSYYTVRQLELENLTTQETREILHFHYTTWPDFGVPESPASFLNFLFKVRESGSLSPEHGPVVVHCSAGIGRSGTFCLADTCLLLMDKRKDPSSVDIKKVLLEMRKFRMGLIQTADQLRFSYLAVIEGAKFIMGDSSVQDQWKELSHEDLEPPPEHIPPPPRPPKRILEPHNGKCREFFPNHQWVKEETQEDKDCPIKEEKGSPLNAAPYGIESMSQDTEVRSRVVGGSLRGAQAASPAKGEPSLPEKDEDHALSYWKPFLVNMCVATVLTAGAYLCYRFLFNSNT
pIC50: −log10 of the molar value.
readout kind: pIC50

CC(C)=CCc1c(O)ccc(C(=O)[C@@H]2[C@@H](c3ccc(O)cc3O)CC(C)=C[C@H]2c2c(O)cc(O)c3c(=O)c(CC=C(C)C)c(-c4ccc(O)cc4O)oc23)c1O
5.60
CC1=C[C@@H](c2c(O)ccc([C@@H]3CC(=O)c4c(O)cc(O)cc4O3)c2O)[C@H](C(=O)c2ccc(O)cc2O)[C@@H](c2ccc(O)cc2O)C1
5.10
CC(C)=CCc1c(-c2ccc(O)cc2O)oc2c3c(cc(O)c2c1=O)OC(C)(C)C=C3
4.99

----------
target: Tyrosine-protein phosphatase non-receptor type 1 (Homo sapiens, UniProt P18031); experiment: Inhibition of human PTP1B using p-nitrophenyl phosphate as substrate preincubated for 10 mins followed by substrate addition measured every minute for 10 mins by UV-VIS spectrophotometric analysis
Reported values of log10 of IC50 for individual entries
readout kind: log10 of IC50 (log10 of the value in µM)

CC(C)=CCc1c(O)ccc(C(=O)[C@H]2[C@@H](c3c(O)cc(-c4cc5ccc(O)cc5o4)cc3O)C=C(C)C[C@@H]2c2ccc(O)cc2O)c1O
0.29
CC(C)=CCc1c(O)cc2c(c1O)C(=O)C[C@@H](c1cc3c(cc1O)OC(C)(C)C=C3)O2
0.63
CC(C)=CCc1c(-c2ccc(O)cc2O)oc2c([C@@H]3C=C(C)C[C@H](c4ccc(O)cc4O)[C@H]3C(=O)c3ccc(O)cc3O)c(O)cc(O)c2c1=O
0.66
O=c1cc(-c2ccc(O)cc2O)oc2cc(O)cc(O)c12
0.71
Oc1cc(O)cc(/C=C/c2ccc(O)cc2O)c1
1.43

Value source: ChEMBL document CHEMBL4251612
